- TARGET: Trypsin (Bos taurus, UniProt P00760)
- Construct: gene PRSS1
- Sequence (P00760 24-246): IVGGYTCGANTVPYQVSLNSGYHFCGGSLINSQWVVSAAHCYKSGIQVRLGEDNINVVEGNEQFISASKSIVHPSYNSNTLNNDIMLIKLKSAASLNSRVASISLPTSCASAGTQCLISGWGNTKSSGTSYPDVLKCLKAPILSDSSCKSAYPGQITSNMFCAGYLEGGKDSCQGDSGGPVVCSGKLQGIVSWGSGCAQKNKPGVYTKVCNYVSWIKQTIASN
- ASSAY PROTOCOL: Trypsin-inhibitory assay
- Format: biochemical
pEC50: −log10 of the molar value. Bridges are numbered along the chain shown (N, C = ends). Where no end group is shown, it is not given here.
Each record here notes measured pEC50.
ENDPOINT LABEL: pEC50

[
  {
    "CONSTRUCT SEQUENCE": "ILKKCRRDSDCPGACICRGNGYCGSGSDGGVCPKGAGRGSIDTWV (disulfide 5-17, 11-23, 15-32) [prmMcoTI-RGS]",
    "ENDPOINT LABEL": "pEC50",
    "ASSAY RESULT": 9.78
  },
  {
    "CONSTRUCT SEQUENCE": "GGVCPKILKKCRRDSDCPGACICRGNGYCGSGSDGLPRGSIDTWV (disulfide 4-21, 11-23, 17-29) [wtMCoTI-RGS]",
    "ENDPOINT LABEL": "pEC50",
    "ASSAY RESULT": 9.22
  }
]
